Test: Toxicokinetics in 30 day repeated dose study
Type: in vivo, beagle dogs
Conditions: beagle, dog, plasma, po; day 1, female, 40 mg/kg; read-out: median Tmax

- COMPOUND: "C#Cc1cccc(Nc2ncnc3cc(OC)c(OCCCN4CCOCC4)cc23)c1.Cl [NRC-2694 monohydrochloride]"
  Tmax: "4 h"

----------
Assay: Acute oral gavage toxicity (MTD)
Settings: both, Swiss albino, mouse, in vivo, po
Structures can show the parent of a compound that is named as a salt.

- COMPOUND: "C#Cc1cccc(Nc2ncnc3cc(OCCOC)c(OCCOC)cc23)c1 [Erlotinib HCl]"
  MTD at 14 days: "500 mg/kg"

----------
Measured NOAEL at 30 days values are reported for all entries that follow.
Experiment: 30 day repeated dose study
Details: both sexes, dog, in vivo, po, beagle dogs, orally by capsule, read-out: no observed adverse effect level (NOAEL)
Counter-ions that a name gives are not always drawn.

- MOLECULE: "C#Cc1cccc(Nc2ncnc3cc(OCCOC)c(OCCOC)cc23)c1 [Erlotinib HCl]"
  NOAEL at 30 days: "5 mg/kg/day"
- MOLECULE: "C#Cc1cccc(Nc2ncnc3cc(OC)c(OCCCN4CCOCC4)cc23)c1.Cl [NRC-2694 monohydrochloride]"
  NOAEL at 30 days: "10 mg/kg/day"

----------
Assay: Toxicokinetics in 30 day repeated dose study
Assay type: in vivo, beagle dogs
Settings: beagle, dog, plasma, po; day 1, female, 10 mg/kg; read-out: median Tmax
Method: The 30 day repeated dose study employed 12 male and 12 female dogs (Marshall's Farm, China). The dogs were acclimatized for a minimum period of 2 weeks and randomly divided into four main groups (G1-G4), each group comprising of 3 dogs per sex. The animals were dosed orally with capsules of NRC-2694A for a period of 30 consecutive days at dose levels of 10 mg/kg b.wt/day (G2-low dose), 20 mg/kg b.wt/day (G3-mid dose) and 40 mg/kg b. wt/day (G4-high dose). […]

- MOLECULE: "C#Cc1cccc(Nc2ncnc3cc(OC)c(OCCCN4CCOCC4)cc23)c1.Cl [NRC-2694 monohydrochloride]"
  UNIT_SPEC: "h"
  Tmax: 2

----------
Assay: in vivo
Settings: both, Swiss albino, mouse, po
Where a name gives a salt, the structure may show the parent alone.
MEASURED_QUANTITY: MTD at 72 h (mg/kg)

- MOLECULE: "C#Cc1cccc(Nc2ncnc3cc(OCCOC)c(OCCOC)cc23)c1 [Erlotinib HCl]"
  RECORDED_MEASUREMENT: 500

----------
Experiment: in vivo
Details: both, Swiss albino, mouse, po
MEASURED_QUANTITY: MTD at 14 days (mg/kg)

- COMPOUND: "C#Cc1cccc(Nc2ncnc3cc(OC)c(OCCCN4CCOCC4)cc23)c1.Cl [NRC-2694 monohydrochloride]"
  UNIT_SPEC: "mg/kg"
  RECORDED_MEASUREMENT: 1000

----------
Assay: Acute toxicity (LD0, LD50)
Type: in vivo
Details: both sexes, mouse, in vivo; po, mice, single dose
Structures can show the parent of a compound that is named as a salt.

- COMPOUND: "C#Cc1cccc(Nc2ncnc3cc(OCCOC)c(OCCOC)cc23)c1 [Erlotinib HCl]"
  LD50 at 14 days: "805 mg/kg"

----------
Test: Toxicokinetics in 30 day repeated dose study
Assay type: in vivo, beagle dogs
Conditions: beagle, dog, plasma, po; day 1, male, 40 mg/kg; read-out: median Tmax

- COMPOUND: "C#Cc1cccc(Nc2ncnc3cc(OC)c(OCCCN4CCOCC4)cc23)c1.Cl [NRC-2694 monohydrochloride]"
  Tmax, h: 2
